Biological target: recombinant human PKLR (Homo sapiens, UniProt P30613)
Construct: His (N); purchased R&D Systems
Sequence (P30613 whole entry): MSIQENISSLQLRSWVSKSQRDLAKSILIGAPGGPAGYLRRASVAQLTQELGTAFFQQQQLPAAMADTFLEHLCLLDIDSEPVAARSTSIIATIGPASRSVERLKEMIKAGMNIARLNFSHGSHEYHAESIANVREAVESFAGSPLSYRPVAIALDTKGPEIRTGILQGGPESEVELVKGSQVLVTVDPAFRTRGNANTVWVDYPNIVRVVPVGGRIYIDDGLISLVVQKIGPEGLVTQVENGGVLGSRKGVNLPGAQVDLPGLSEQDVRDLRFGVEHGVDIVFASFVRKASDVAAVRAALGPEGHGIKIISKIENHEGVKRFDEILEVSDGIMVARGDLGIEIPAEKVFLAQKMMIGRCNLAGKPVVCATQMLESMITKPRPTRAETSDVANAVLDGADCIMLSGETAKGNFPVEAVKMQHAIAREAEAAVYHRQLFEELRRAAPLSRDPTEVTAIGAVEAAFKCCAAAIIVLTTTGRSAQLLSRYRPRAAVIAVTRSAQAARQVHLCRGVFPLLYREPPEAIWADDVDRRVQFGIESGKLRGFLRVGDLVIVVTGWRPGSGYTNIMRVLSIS
Test: Human PKLR activation assay (Kinase-Glo Plus luminescent detection of generated ATP)
Format: biochemical
Conditions: percentage activation normalised to DMSO vehicle (LOW) and 5 μM TEPP-46 (HIGH) controls; read-out: hPKLR Emax (%)
test.readout: Emax (%)

Cn1ccc(Cn2ncc3cc(S(=O)(=O)c4ccccc4)c(NCCO)cc3c2=O)n1 | 123
O=c1c2ccc(S(=O)(=O)c3cnn(C4CC4)c3)cc2cnn1Cc1cc[nH]n1 | 119
O=c1c2ccc(S(=O)(=O)c3cnn(C4CC4)c3)cc2cnn1Cc1ccn(C2CC2)n1 | 120
Cc1nc(S(=O)(=O)c2ccc3c(=O)n(Cc4cc[nH]n4)ncc3c2)cs1 | 131
O=c1c2ccc(S(=O)(=O)c3ccc4c(c3)OCCO4)cc2cnn1Cc1ccn(CCO)n1 | 128
O=c1c2ccc(S(=O)(=O)c3cn[nH]c3)cc2cnn1Cc1ccc2occc2n1 | 118
Nc1cccc(Cn2ncc3cc(S(=O)(=O)c4ccccc4)ccc3c2=O)c1 | 108
COc1ccc(Cn2ncc3cc(S(=O)(=O)c4cnn(CCO)c4)ccc3c2=O)cn1 | 119
O=c1c2ccc(S(=O)(=O)c3cc4c(cn3)OCC4)cc2cnn1Cc1cc[nH]n1 | 142
Cn1ccc(Cn2ncc3cc(S(=O)(=O)c4ccccc4)ccc3c2=O)n1 | 122
Cn1cc(S(=O)(=O)c2ccc3c(=O)n(Cc4cccc(C5CC5)n4)ncc3c2)cn1 | 120
COc1ccc(S(=O)(=O)c2ccc3c(=O)n(Cc4cccnc4O)ncc3c2)cc1 | 131
Nc1cccc(Cn2ncc3cc(S(=O)(=O)c4ccccc4)ccc3c2=O)n1 | 149
O=c1c2ccc(S(=O)(=O)c3ccc4c(c3)NCCO4)cc2cnn1Cc1ccn(CCO)n1 | 125
Cc1[nH]nc(Cn2ncc3cc(S(=O)(=O)c4cn[nH]c4)ccc3c2=O)c1Cl | 114
Cn1cc(S(=O)(=O)c2ccc3c(=O)n(Cc4cc[nH]n4)ncc3c2)cn1 | 125

###

Target: recombinant human PKLR (Homo sapiens, UniProt P30613)
Construct: His (N); purchased R&D Systems
Test: Human PKLR activation assay (Kinase-Glo Plus luminescent detection of generated ATP)
Type: biochemical
Details: percentage activation normalised to DMSO vehicle (LOW) and 5 μM TEPP-46 (HIGH) controls; read-out: hPKLR Emax (%)
test.readout: Emax (%)

O=c1c2ccc(S(=O)(=O)c3cnc4occc4c3)cc2cnn1Cc1cc[nH]n1 [Example 225] | 117
COc1ccc([S@](=N)(=O)c2ccc3c(=O)n(Cc4ccc(OC)nc4)ncc3c2)cc1 (single isomer, unassigned) [Example 192] | 129
Cc1nc(Cn2ncc3cc(S(=O)(=O)c4cn[nH]c4)ccc3c2=O)ccc1F [Example 251] | 111
COc1ccc(Cn2ncc3cc([S@@](=N)(=O)c4ccc5c(c4)CCO5)ccc3c2=O)cn1 (single isomer, unassigned) [Example 128] | 132
COc1ccc([S@@](=N)(=O)c2ccc3c(=O)n(Cc4ccc(OC)nc4)ncc3c2)cc1 (single isomer, unassigned) [Example 138] | 133
Cc1cccc(Cn2ncc3cc(S(=O)(=O)c4cn[nH]c4)ccc3c2=O)n1 [Example 238] | 127
O=c1c2ccc(S(=O)(=O)c3ccc4occc4n3)cc2cnn1Cc1cc[nH]n1 [Example 223] | 132
